# ASSAY TARGET: Proteasome Macropain subunit MB1 (Homo sapiens)
# Sequence (P28074 whole entry): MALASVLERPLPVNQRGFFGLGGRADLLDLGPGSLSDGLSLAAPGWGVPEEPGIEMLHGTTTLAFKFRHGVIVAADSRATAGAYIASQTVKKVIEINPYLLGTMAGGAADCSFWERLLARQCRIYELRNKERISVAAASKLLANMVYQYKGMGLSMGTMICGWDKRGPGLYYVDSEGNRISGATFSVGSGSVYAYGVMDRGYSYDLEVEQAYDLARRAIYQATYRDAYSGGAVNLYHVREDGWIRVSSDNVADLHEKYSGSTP
So basically: is IC50 under 0.5 µM? Then TRUE. Not under? Then FALSE.

Prompt: State whether 0.5 µM exceeds IC50 recorded for `C[C@H](NC(=O)[C@H](Cc1ccc(OCc2ccccc2)cc1)NC(=O)CCCCCNC(=O)CCCCCNC(=O)CCCCCNC(=O)OC(C)(C)C)C(=O)N[C@@H](C[C@]1(O)C(=O)Nc2ccccc21)C(=O)NCc1ccccc1` .
Completion: TRUE

Prompt: State whether 0.5 µM exceeds IC50 recorded for `C[C@H](NC(=O)[C@H](Cc1ccc(OCc2ccccc2)cc1)NC(=O)CCCCCNC(=O)CCCCCNC(=O)CCCCCNC(=O)CCCCCNC(=O)CCCCCNC(=O)CCCCC(=O)N[C@@H](Cc1ccc(OCc2ccccc2)cc1)C(=O)N[C@@H](C)C(=O)N[C@@H](C[C@]1(O)C(=O)Nc2ccccc21)C(=O)NCc1ccccc1)C(=O)N[C@@H](C[C@]1(O)C(=O)Nc2ccccc21)C(=O)NCc1ccccc1` .
Completion: TRUE

Prompt: State whether 0.5 µM exceeds IC50 recorded for `C[C@H](NC(=O)[C@H](Cc1ccc(OCc2ccccc2)cc1)NC(=O)CCCCCNC(=O)CCCCCNC(=O)CCCCCNC(=O)CCCCCNC(=O)CCCCC(=O)N[C@@H](Cc1ccc(OCc2ccccc2)cc1)C(=O)N[C@@H](C)C(=O)N[C@@H](C[C@]1(O)C(=O)Nc2ccccc21)C(=O)NCc1ccccc1)C(=O)N[C@@H](C[C@]1(O)C(=O)Nc2ccccc21)C(=O)NCc1ccccc1` .
Completion: FALSE

Prompt: State whether 0.5 µM exceeds IC50 recorded for `C[C@H](NC(=O)[C@H](Cc1ccc(OCc2ccccc2)cc1)NC(=O)OC(C)(C)C)C(=O)N[C@@H](C[C@]1(O)C(=O)Nc2ccccc21)C(=O)NCc1ccccc1` .
Completion: FALSE

Prompt: State whether 0.5 µM exceeds IC50 recorded for `C[C@H](NC(=O)[C@H](Cc1ccc(OCc2ccccc2)cc1)NC(=O)CCCCCNC(=O)CCCCCNC(=O)CCCCCNC(=O)CCCCC(=O)NCCCCCC(=O)NCCCCCC(=O)NCCCCCC(=O)N[C@@H](Cc1ccc(OCc2ccccc2)cc1)C(=O)N[C@@H](C)C(=O)N[C@@H](C[C@]1(O)C(=O)Nc2ccccc21)C(=O)NCc1ccccc1)C(=O)N[C@@H](C[C@]1(O)C(=O)Nc2ccccc21)C(=O)NCc1ccccc1` .
Completion: TRUE

Moving on to another compound below.
Prompt: State whether 0.5 µM exceeds IC50 recorded for `C[C@H](NC(=O)[C@H](Cc1ccc(OCc2ccccc2)cc1)NC(=O)CCCCCNC(=O)CCCCCNC(=O)CCCCCNC(=O)CCCCC(=O)N[C@@H](Cc1ccc(OCc2ccccc2)cc1)C(=O)N[C@@H](C)C(=O)N[C@@H](C[C@]1(O)C(=O)Nc2ccccc21)C(=O)NCc1ccccc1)C(=O)N[C@@H](C[C@]1(O)C(=O)Nc2ccccc21)C(=O)NCc1ccccc1` .
Completion: FALSE

meta.source: ChEMBL document CHEMBL2331312
